biological target: Carbonic anhydrase 2 (Homo sapiens); experiment: Binding affinity to carbonic anhydrase II (unknown origin) fragment assessed as rate of protein modification by measuring inactivation rate constant (Kinact)
quantity.measured: Kinact

Worked cases, Kinact given:
NS(=O)(=O)c1cccc(CNS(=O)(=O)c2ccc(S(=O)(=O)F)cc2)c1 :: 9.6 10^-5/s
NS(=O)(=O)c1cccc(CNC(=O)c2ccc(S(=O)(=O)F)cc2)c1 :: 12 10^-5/s
NS(=O)(=O)c1ccc(CCNC(=O)c2ccc(S(=O)(=O)F)cc2)cc1 :: 0.89 10^-5/s
NS(=O)(=O)c1cccc(CNC(=O)c2cccc(S(=O)(=O)F)c2)c1 :: 21 10^-5/s

# next compound below
Query: Given the entry CC(NS(=O)(=O)c1ccc(S(=O)(=O)F)cc1)c1cccc(S(N)(=O)=O)c1 (stereo not given) , report its measured Kinact.
Reply: 1.7 10^-5/s

====

assay: Thiol reactivity of compound assessed as (Kinact/Ki) rate constant ratio; type: ADME
quantity.measured: kinact/KI (M⁻¹ s⁻¹)
Form entry: value (M⁻¹ s⁻¹) — number only.

Query: Given the entry CC(C)(C)OC(=O)/C=C/C(=O)N1CCC[C@@H](n2nc(-c3ccc(Oc4ccccc4)cc3)c3c(N)ncnc32)C1 , report its measured kinact/KI.
Reply: 35000

====

experiment: Inhibition of staphylococcus aureus Sortase A assessed as fluorescence polarization using reporter peptide W7-F incubated for 30 mins by competition assay
quantity.measured: pIC50
Give only the number. pIC50 is defined as minus log10 of concentration in molar units.

Query: Given the entry O=Cc1ccccc1NCc1ccccc1B(O)O , report its measured pIC50.
Reply: 5.89

====

molecular target: Replicase polyprotein 1ab (Severe acute respiratory syndrome coronavirus 2, UniProt P0DTD1); assay: Inhibition of SARS-CoV-2 cysteine protease main protease
quantity.measured: IC50

Query: Given the entry C[C@@H](NC(=O)[C@H](c1cccnc1)N(C(=O)C(Br)(Br)Br)c1ccc(-c2ccccc2)cc1)c1ccccc1 , report its measured IC50.
Reply: 80 nM

====

assay: Reactivity of SuTEx assessed as aryl-AG modifications by measuring half life by HLPC analysis; type: physicochemical
quantity.measured: half-life (min)
Form entry: value (min) — number only.

Worked cases, half-life given:
COc1ccc(-c2ncn(S(=O)(=O)c3ccc(-c4ccccc4)cc3)n2)cc1 :: 17.3
COc1ccc(-c2ncn(S(=O)(=O)c3ccc(OC)cc3)n2)cc1 :: 183

# next molecule below
Query: Given the entry COc1ccc(-c2ncn(S(=O)(=O)c3cccnc3)n2)cc1 , report its measured half-life.
Reply: 1.6

====

target: UniProt:P0DTD1; experiment: Inhibition of SARS-CoV-2 papain-like protease (PLpro) using fluorogenic peptide substrate by fluorescent assay
Reported IC50 values for a set of molecules
Form entry: value (µM) — number only.

C=CCSc1nc2sc3c(c2c(=O)n1CC)CCc1ccccc1-3 :: 0.8

Query: Given the entry CCSc1nc2sc3c(c2c(=O)n1CC)CCc1ccccc1-3 , report its measured IC50.
Reply: 4.9

====

target: Pyruvate kinase PKLR (Homo sapiens, UniProt P30613); assay: Allosteric activation at human liver pyruvate kinase
Sequence (P30613 whole entry): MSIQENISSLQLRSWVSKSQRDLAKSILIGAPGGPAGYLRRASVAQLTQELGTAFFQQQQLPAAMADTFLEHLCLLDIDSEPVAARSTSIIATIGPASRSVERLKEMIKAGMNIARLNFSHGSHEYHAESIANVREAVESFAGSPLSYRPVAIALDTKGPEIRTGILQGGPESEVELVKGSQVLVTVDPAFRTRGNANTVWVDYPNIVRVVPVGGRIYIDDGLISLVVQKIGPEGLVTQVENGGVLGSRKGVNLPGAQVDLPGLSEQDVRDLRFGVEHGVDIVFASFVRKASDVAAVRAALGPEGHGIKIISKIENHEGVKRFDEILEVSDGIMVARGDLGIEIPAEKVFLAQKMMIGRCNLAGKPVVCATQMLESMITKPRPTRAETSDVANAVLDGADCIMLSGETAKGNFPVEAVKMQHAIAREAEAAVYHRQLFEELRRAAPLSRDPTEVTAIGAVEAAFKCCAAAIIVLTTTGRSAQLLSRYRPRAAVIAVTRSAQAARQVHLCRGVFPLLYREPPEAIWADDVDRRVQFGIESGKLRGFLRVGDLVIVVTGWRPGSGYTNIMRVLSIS
quantity.measured: EC50 (µM)
Form entry: value (µM) — number only.

Query: Given the entry COC(=O)c1ccccc1SC1=NS(=O)(=O)c2ccccc21 , report its measured EC50.
Reply: 0.29

====

target: Tyrosine-protein kinase ABL1 (Homo sapiens)
Sequence (P00519 whole entry): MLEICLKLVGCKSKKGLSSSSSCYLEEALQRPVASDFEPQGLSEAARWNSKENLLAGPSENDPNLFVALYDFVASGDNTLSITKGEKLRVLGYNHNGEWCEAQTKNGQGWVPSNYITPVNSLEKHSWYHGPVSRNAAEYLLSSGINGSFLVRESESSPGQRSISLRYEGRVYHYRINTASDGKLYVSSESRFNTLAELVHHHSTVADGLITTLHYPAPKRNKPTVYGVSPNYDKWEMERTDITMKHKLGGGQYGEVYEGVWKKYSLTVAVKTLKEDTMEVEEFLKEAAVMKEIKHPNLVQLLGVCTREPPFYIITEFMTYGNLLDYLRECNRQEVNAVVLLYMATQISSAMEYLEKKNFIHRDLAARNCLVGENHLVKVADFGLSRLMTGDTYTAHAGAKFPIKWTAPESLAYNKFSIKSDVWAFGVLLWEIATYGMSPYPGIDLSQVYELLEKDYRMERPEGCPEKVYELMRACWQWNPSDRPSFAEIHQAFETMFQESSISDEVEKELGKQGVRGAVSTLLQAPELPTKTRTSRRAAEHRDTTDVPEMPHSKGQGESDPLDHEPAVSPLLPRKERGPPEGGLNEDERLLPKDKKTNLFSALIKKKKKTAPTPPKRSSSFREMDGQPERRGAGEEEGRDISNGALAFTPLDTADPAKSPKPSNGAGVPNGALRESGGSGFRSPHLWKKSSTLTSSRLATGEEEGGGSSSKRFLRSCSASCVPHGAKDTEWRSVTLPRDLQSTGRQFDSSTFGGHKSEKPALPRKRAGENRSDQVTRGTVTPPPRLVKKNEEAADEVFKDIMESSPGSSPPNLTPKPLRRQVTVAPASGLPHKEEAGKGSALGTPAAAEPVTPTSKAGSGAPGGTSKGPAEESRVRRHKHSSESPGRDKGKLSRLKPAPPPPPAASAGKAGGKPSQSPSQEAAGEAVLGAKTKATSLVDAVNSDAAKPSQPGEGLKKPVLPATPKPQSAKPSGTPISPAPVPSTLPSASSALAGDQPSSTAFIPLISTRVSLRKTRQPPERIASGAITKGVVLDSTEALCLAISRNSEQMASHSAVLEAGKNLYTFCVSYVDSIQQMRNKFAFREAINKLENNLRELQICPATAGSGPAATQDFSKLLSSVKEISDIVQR
quantity.measured: IC50
Mention the unit after the number when you answer.

Query: Recorded IC50 for COc1cc(S(=O)(=O)F)ccc1-c1c[nH]c2ncc(-c3cncc(C(=O)N(C)C)c3)cc12 with Tyrosine-protein kinase ABL1 (Homo sapiens), please?
Reply: 73 nM

====

experiment: GSH reactivity in PBS buffer at pH 7.4 assessed as half life; format: ADME
Reported half-life values for a set of compounds
Form entry: value (h) — number only.

CCSc1nc2sc3c(c2c(=O)n1CC)CCc1ccccc1-3 :: 0.683
C#CCOCCOCCOc1cccc(N2CCN(C(=O)C(F)F)CC2)c1 :: 129
C#Cc1cccc(Oc2ccc(-c3nn(CCc4ccccc4N(C)C(=O)C45CC4C5)c4ncnc(N)c34)cc2)c1 (configuration not stated) :: 32.7
CC#CC1=Nc2ccccc2C(C)(C)N1 :: 0.025

Query: Given the entry CN(C(=O)C12CC1C2)c1ccccc1 (configuration not stated) , report its measured half-life.
Reply: 32.7

====

assay: Metabolic stability in human liver microsomes assessed as half life; format: ADME, Microsome
quantity.measured: half-life

Query: Given the entry O=C1CCC(N2Cc3ccc(OS(=O)(=O)F)cc3C2=O)C(=O)N1 (stereo unspecified) , report its measured half-life.
Reply: > 2.42 h

====

Observed Ki, system Carbonic anhydrase 2 (Homo sapiens).

CC(NC(=O)Cc1ccc(S(=O)(=O)F)cc1)c1cccc(S(N)(=O)=O)c1 (stereo not drawn) :: 22 µM

Query: Recorded Ki for CC(NC(=O)c1cccc(S(=O)(=O)F)c1)c1cccc(S(N)(=O)=O)c1 (stereo not drawn) with Carbonic anhydrase 2 (Homo sapiens), please?
Reply: 53 µM

Query: Recorded Ki for NS(=O)(=O)c1ccc(CCNS(=O)(=O)c2ccc(S(=O)(=O)F)cc2)cc1 with Carbonic anhydrase 2 (Homo sapiens), please?
Reply: < 5 µM

Query: Recorded Ki for NS(=O)(=O)c1cccc(CNS(=O)(=O)c2ccc(S(=O)(=O)F)cc2)c1 with Carbonic anhydrase 2 (Homo sapiens), please?
Reply: < 5 µM

Query: Recorded Ki for NS(=O)(=O)c1ccc(CCNC(=O)Cc2ccc(S(=O)(=O)F)cc2)cc1 with Carbonic anhydrase 2 (Homo sapiens), please?
Reply: < 5 µM

Query: Recorded Ki for CC(NC(=O)c1ccc(S(=O)(=O)F)cc1)c1cccc(S(N)(=O)=O)c1 (stereo not drawn) with Carbonic anhydrase 2 (Homo sapiens), please?
Reply: 33 µM

Query: Recorded Ki for NS(=O)(=O)c1ccc(CCNC(=O)c2cccc(S(=O)(=O)F)c2)cc1 with Carbonic anhydrase 2 (Homo sapiens), please?
Reply: < 5 µM

Query: Recorded Ki for CC(NS(=O)(=O)c1cccc(S(=O)(=O)F)c1)c1cccc(S(N)(=O)=O)c1 (stereo not drawn) with Carbonic anhydrase 2 (Homo sapiens), please?
Reply: 12 µM

Query: Recorded Ki for CC(NS(=O)(=O)c1ccc(S(=O)(=O)F)cc1)c1cccc(S(N)(=O)=O)c1 (stereo not drawn) with Carbonic anhydrase 2 (Homo sapiens), please?
Reply: < 5 µM

Query: Recorded Ki for NS(=O)(=O)c1ccc(CCNC(=O)c2ccc(S(=O)(=O)F)cc2)cc1 with Carbonic anhydrase 2 (Homo sapiens), please?
Reply: < 5 µM

Query: Recorded Ki for NS(=O)(=O)c1cccc(CNC(=O)Cc2ccc(S(=O)(=O)F)cc2)c1 with Carbonic anhydrase 2 (Homo sapiens), please?
Reply: < 5 µM

Query: Recorded Ki for NS(=O)(=O)c1cccc(CNC(=O)c2cccc(S(=O)(=O)F)c2)c1 with Carbonic anhydrase 2 (Homo sapiens), please?
Reply: < 5 µM

Query: Recorded Ki for NS(=O)(=O)c1cccc(CNC(=O)c2ccc(S(=O)(=O)F)cc2)c1 with Carbonic anhydrase 2 (Homo sapiens), please?
Reply: < 5 µM

====

Reported K values for a set of molecules
experiment: GSH reactivity in PBS buffer at pH 8 assessed as second-order reaction rate constants upto 200 uM by DTNB assay; format: ADME; settings: pH 8, 200 µM
Form entry: value (M⁻¹ s⁻¹) — number only.

C=CC(=O)NCc1ccccc1 :: 0.003
CNS(=O)(=O)OCC(=O)NCc1ccccc1 :: 0.029
CS(=O)(=O)OCC(=O)NCc1ccccc1 :: 0.134
Cc1ccc(S(=O)(=O)OCC(=O)NCc2ccccc2)cc1 :: 0.161
CN(C)S(=O)(=O)OCC(=O)NCc1ccccc1 :: 0.012

Query: Given the entry O=C(CCl)NCc1ccccc1 , report its measured K.
Reply: 0.08

Query: Given the entry O=C(COS(=O)(=O)NCc1ccccc1)NCc1ccccc1 , report its measured K.
Reply: 0.02

Query: Given the entry O=C(COS(=O)(=O)Nc1ccc(Br)cc1)NCc1ccccc1 , report its measured K.
Reply: 0.003

Query: Given the entry O=C(COS(=O)(=O)Nc1ccccc1)NCc1ccccc1 , report its measured K.
Reply: 0.009

====

molecular target: Carbonic anhydrase 2 (Homo sapiens); experiment: Binding affinity to carbonic anhydrase II (unknown origin) fragment assessed as rate of protein modification by measuring inactivation rate constant (Kinact)
Reported Kinact values for a set of molecules

CC(NC(=O)c1ccc(S(=O)(=O)F)cc1)c1cccc(S(N)(=O)=O)c1 (stereo not drawn) :: 0.45 10^-5/s
CC(NC(=O)c1cccc(S(=O)(=O)F)c1)c1cccc(S(N)(=O)=O)c1 (stereo not drawn) :: 0.24 10^-5/s
NS(=O)(=O)c1ccc(CCNC(=O)Cc2ccc(S(=O)(=O)F)cc2)cc1 :: 0.36 10^-5/s
NS(=O)(=O)c1ccc(CCNS(=O)(=O)c2ccc(S(=O)(=O)F)cc2)cc1 :: 2.1 10^-5/s
NS(=O)(=O)c1cccc(CNC(=O)Cc2ccc(S(=O)(=O)F)cc2)c1 :: 0.73 10^-5/s

Query: Given the entry NS(=O)(=O)c1ccc(CCNC(=O)c2cccc(S(=O)(=O)F)c2)cc1 , report its measured Kinact.
Reply: 0.51 10^-5/s

Query: Given the entry CC(NS(=O)(=O)c1cccc(S(=O)(=O)F)c1)c1cccc(S(N)(=O)=O)c1 (stereo not drawn) , report its measured Kinact.
Reply: 3.9 10^-5/s

Query: Given the entry CC(NC(=O)Cc1ccc(S(=O)(=O)F)cc1)c1cccc(S(N)(=O)=O)c1 (stereo not drawn) , report its measured Kinact.
Reply: 0.97 10^-5/s
